# literature pull: UniProtKB P08581 Ki

{"compound": "Nc1ncc(-c2cnn(C3CCCCC3)c2)cc1-c1nnnn1-c1cccc(F)c1F", "Ki": "≤ 100 nM"}
{"compound": "Cc1cnc2[nH]cc(-c3oncc3-c3cccc(F)c3F)c2c1", "Ki": "< 200 nM"}

Looking up C[C@@H](NC(=O)c1nc(C#Cc2cccnc2)cnc1N)c1nnc2ccc(Nc3cccc(Cl)c3)nn12 , I found its Ki recorded as 250 to 2500 nM

Looking up Cc1nc(-c2cc(-c3cccnc3)cnc2N)c(-c2cccc(Cl)c2Cl)o1 , I found its Ki recorded as ≤ 100 nM

Looking up C[C@@H](NC(=O)c1nc(-c2cnn(C)c2)cnc1N)c1nnc2ccc(-c3ccccc3)nn12 , I found its Ki recorded as 250 to 2500 nM

Looking up Nc1ncc(-c2cccnc2)cc1-c1nnnn1-c1cc(Cl)ccc1F , I found its Ki recorded as 100 to 1000 nM

Looking up Cc1noc(-c2cccc(Nc3nccc(Oc4ccc(-c5cnc(Cc6ccccc6)n(C)c5=O)cc4F)n3)c2)n1 , I found its Ki recorded as > 20000 nM

Looking up Nc1ncc(-c2cnn(CC(=O)N3CCCC3)c2)cc1-c1nnnn1-c1cccc(F)c1F , I found its Ki recorded as 100 to 1000 nM

---

# literature pull: Hepatocyte growth factor receptor (Homo sapiens, UniProt P08581) Ki

Example compounds with recorded Ki:
{"compound": "COCCN(C)C(=O)c1ccc(-c2cnc3c(-c4ccccn4)c(N)nn3c2)nc1", "Ki": "< 0.5 µM"}
{"compound": "Nc1ncc(-c2cnn(C3CCN(C(=O)N4CCCC4)CC3)c2)cc1-c1nnnn1-c1cccc(Cl)c1F", "Ki": "≤ 0.1 µM"}
{"compound": "COc1ccc(-c2cnc(N)c(-c3nncn3-c3cccc(Cl)c3Cl)c2)cc1", "Ki": "0.1 to 1 µM"}
{"compound": "Nc1nn2cc(-c3ccc4[nH]ccc4c3)cnc2c1-c1ccccn1", "Ki": "< 0.5 µM"}
{"compound": "COc1cnc2[nH]cc(-c3oncc3-c3cccc(Cl)c3Cl)c2c1", "Ki": "< 0.2 µM"}

Entry CCc1cnc(N)c(C(=O)N[C@H](C)c2nnc3ccc(Nc4cccc(Cl)c4)nn23)n1 , tested on Hepatocyte growth factor receptor (Homo sapiens, UniProt P08581), has a reported Ki of 0.25 to 2.5 µM

Entry C#Cc1cnc(N)c(C(=O)N[C@H](C)c2nnc3ccc(Nc4cccc(Cl)c4)nn23)n1 , tested on Hepatocyte growth factor receptor (Homo sapiens, UniProt P08581), has a reported Ki of ≤ 0.25 µM

Entry Nc1ncc(-c2ccc(C3CCNCC3)cc2)cc1-c1nnnn1-c1cccc(F)c1F , tested on Hepatocyte growth factor receptor (Homo sapiens, UniProt P08581), has a reported Ki of ≤ 0.1 µM

Entry Nc1nn2cc(-c3cccc(C(=O)N4CCC4)n3)cnc2c1-c1ccccn1 , tested on Hepatocyte growth factor receptor (Homo sapiens, UniProt P08581), has a reported Ki of < 0.5 µM

Entry CN1CCCN(C(=O)c2cccc(-c3cnc4c(-c5ccccn5)c(N)nn4c3)n2)CC1 , tested on Hepatocyte growth factor receptor (Homo sapiens, UniProt P08581), has a reported Ki of < 0.5 µM

---

# literature pull: UniProt:P08581 Ki

Example molecules with recorded Ki:
{"molecule": "Nc1ncc(-c2cccnc2)cc1-c1nnnn1-c1c(F)cccc1F", "Ki": "0.1 to 1 µM"}
{"molecule": "Cc1nn(C)cc1-c1nn2c([C@H](C)c3ccc4ncccc4c3)nnc2s1", "Ki": "0.024 µM"}
{"molecule": "Fc1cccc(-c2cnoc2-c2n[nH]c3ncccc23)c1F", "Ki": "0.2 to 1 µM"}
{"molecule": "COc1ccc2c(Oc3ccc(Nc4nccnc4C(=O)Nc4ccccc4)cc3F)ccnc2c1", "Ki": "0.0293 µM"}
{"molecule": "Nc1nn2cc(-c3ccc(C(=O)N4CCC[C@@H](O)C4)cn3)cnc2c1-c1ccccn1", "Ki": "< 0.5 µM"}
{"molecule": "Nc1ncc(-c2ccc(CC3(O)CCNCC3)cc2)cc1-c1nnnn1-c1cccc(F)c1F", "Ki": "≤ 0.1 µM"}
{"molecule": "Nc1ncc(-c2cncs2)cc1-c1nnnn1-c1cccc(F)c1F", "Ki": "≤ 0.1 µM"}
{"molecule": "COc1cc(O)ccc1-c1cnc(N)c(-c2nnnn2-c2cccc(F)c2F)c1", "Ki": "≤ 0.1 µM"}

Entry CC(C)Nc1cc(-c2c(N)nn3cc(-c4ccncc4)cnc23)ncn1 , tested on UniProt:P08581, has a reported Ki of < 0.5 µM

Entry CN(C)Cc1cccc(-c2cnc3c(-c4ccccn4)c(N)nn3c2)c1 , tested on UniProt:P08581, has a reported Ki of < 0.5 µM

Entry C[C@@H](NC(=O)c1nc(-c2ccccc2)cnc1N)c1nnc2ccc(Cl)nn12 , tested on UniProt:P08581, has a reported Ki of 0.25 to 2.5 µM

Entry CCc1ccccc1-c1cnc2c(-c3ccccn3)c(N)nn2c1 , tested on UniProt:P08581, has a reported Ki of 0.5 to 5 µM

---

# literature pull: Hepatocyte growth factor receptor (Homo sapiens, UniProt P08581) Ki

Example compounds with recorded Ki:
{"smilesStructure": "Nc1ncc(-c2ccc(N3CCNCC3)cc2)cc1-c1nc2cc(F)ccc2n1-c1cccc(Cl)c1F", "target": "Hepatocyte growth factor receptor (Homo sapiens, UniProt P08581)", "valueObserved": "100 to 1000 nM"}
{"smilesStructure": "Nc1nn2cc(-c3cccnc3N3CCCC3)cnc2c1-c1ccccn1", "target": "Hepatocyte growth factor receptor (Homo sapiens, UniProt P08581)", "valueObserved": "500 to 5000 nM"}
{"smilesStructure": "Nc1ncc(-c2cnn(C3CNC3)c2)cc1-c1nnnn1-c1cccc(Cl)c1F", "target": "Hepatocyte growth factor receptor (Homo sapiens, UniProt P08581)", "valueObserved": "≤ 100 nM"}
{"smilesStructure": "Nc1ncc(-c2ccc(CN3CCCC3)cc2)cc1-c1nnnn1-c1cc(Cl)ccc1F", "target": "Hepatocyte growth factor receptor (Homo sapiens, UniProt P08581)", "valueObserved": "100 to 1000 nM"}
{"smilesStructure": "Nc1nn2cc(-c3cccc(N4CCNCC4)c3)cnc2c1-c1ccccn1", "target": "Hepatocyte growth factor receptor (Homo sapiens, UniProt P08581)", "valueObserved": "< 500 nM"}

Looking up Fc1cccc(Cc2cnoc2-c2c[nH]c3ncccc23)c1F , I found its Ki recorded as 1000 to 12500 nM

Looking up Cc1cnc2c(-c3cc(N[C@H](C)C4CCCCC4)ncn3)c(N)nn2c1 , I found its Ki recorded as < 500 nM

Looking up CCCN1CCC(n2cc(-c3cnc(N)c(-c4nnnn4-c4cccc(Cl)c4F)c3)cn2)CC1 , I found its Ki recorded as ≤ 100 nM

Looking up CC(=O)Nc1cccc(-c2cnc(N)c(-c3nncn3-c3cccc(Cl)c3Cl)c2)c1 , I found its Ki recorded as 100 to 1000 nM

---

# literature pull: Hepatocyte growth factor receptor (Homo sapiens, UniProt P08581) Ki

Example compounds with recorded Ki:
{"compound": "Nc1ncc(-c2cc3c(s2)CNCC3)nc1-c1nnnn1-c1cccc(Cl)c1F", "Ki": "≤ 100 nM"}
{"compound": "CN(C)Cc1cccc(-c2cnc(N)c(-c3nnnn3-c3cccc(Cl)c3Cl)c2)c1", "Ki": "≤ 100 nM"}
{"compound": "CN1CCN(c2ccc(-c3cnc(N)c(-c4nncn4-c4cccc(F)c4F)c3)cc2)CC1", "Ki": "100 to 1000 nM"}
{"compound": "CN(C)CCNC(=O)c1ccc(-c2cnc(N)c(-c3nnnn3-c3cccc(Cl)c3Cl)c2)cc1", "Ki": "≤ 100 nM"}
{"compound": "Nc1ncc(-c2ccc(N3CC(CO)OC3=O)cc2)cc1-c1nnnn1-c1cccc(F)c1F (stereo not shown)", "Ki": "≤ 100 nM"}
{"compound": "CSc1cc(-c2c(N)nn3cc(C)cnc23)ncn1", "Ki": "< 500 nM"}

Switching to the query record.
Entry COc1ccc2c(Oc3ccc(Nc4ncc(-c5ccsc5)cc4C(=O)Nc4ccccc4)cc3F)ccnc2c1 , tested on Hepatocyte growth factor receptor (Homo sapiens, UniProt P08581), has a reported Ki of 4.7 nM

---

# literature pull: Hepatocyte growth factor receptor (Homo sapiens, UniProt P08581) pKi
pKi: −log10 of the molar value.

Example molecules with recorded pKi:
{"molecule": "C[C@@H](NC(=O)c1nc(-c2ccccc2)cnc1N)c1nnc2sc(N)nn12", "target": "Hepatocyte growth factor receptor (Homo sapiens, UniProt P08581)", "quantity": "pKi", "valueObserved": "5.60 to 6.60"}
{"molecule": "Nc1ncc(-c2ccsc2)cc1-c1nnnn1-c1cccc(F)c1F", "target": "Hepatocyte growth factor receptor (Homo sapiens, UniProt P08581)", "quantity": "pKi", "valueObserved": "≥ 7.00"}

Switching to the query record.
Looking up Nc1nn2cc(-c3cccc(C(=O)N4CCCC(O)C4)n3)cnc2c1-c1ccccn1 (stereo not drawn) , I found its pKi recorded as > 6.30
